Hello, the source for this data is ChEMBL document CHEMBL3751699, in case you need it.

- experimentSummary: Selectivtiy index, ratio of IC50 for equine serum BChE to IC50 for electric eel AChE
Kindly return yes if reported Ratio IC50 is no lower than 3; return no if it is lower.

>>> group("O=c1cc(-c2cccc(O)c2)oc2cc(OCCCCCCCCN3CCCC3)ccc12")
"yes"
>>> group("O=c1cc(-c2cccc(OCc3ccccc3)c2)oc2cc(OCCCCCCCCN3CCCC3)ccc12")
"yes"
>>> group("O=c1cc(-c2ccc(Br)cc2)oc2cc(OCCCCCCCCN3CCCC3)ccc12")
"yes"
>>> group("Cc1ccc(-c2cc(=O)c3ccc(OCCCCCCCCN4CCCC4)cc3o2)cc1")
"no"
>>> group("O=c1cc(-c2ccccc2O)oc2cc(OCCCCCCCCN3CCCC3)ccc12")
"no"
>>> group("O=c1cc(-c2ccc(O)cc2)oc2cc(OCCCCCCCCN3CCCC3)ccc12")
"yes"
>>> group("COc1cccc(-c2cc(=O)c3ccc(OCCCCCCCCN4CCCC4)cc3o2)c1")
"yes"
>>> group("O=c1cc(-c2ccc(OCc3ccccc3)cc2)oc2cc(OCCCCCCCCN3CCCC3)ccc12")
"yes"
>>> group("O=c1cc(-c2cccc3ccccc23)oc2cc(OCCCCCCCCN3CCCC3)ccc12")
"no"
>>> group("COc1ccc(-c2cc(=O)c3ccc(OCCCCCCCCN4CCCC4)cc3o2)cc1")
"yes"
>>> group("COc1ccc(-c2cc(=O)c3ccc(OCCCCCCCCN4CCCC4)cc3o2)cc1OC")
"yes"
>>> group("COc1cc(-c2cc(=O)c3ccc(OCCCCCCCCN4CCCC4)cc3o2)cc(OC)c1OC")
"no"
>>> group("O=c1cc(-c2ccc(-c3ccccc3)cc2)oc2cc(OCCCCCCCCN3CCCC3)ccc12")
"yes"
>>> group("O=c1cc(-c2ccccc2OCc2ccccc2)oc2cc(OCCCCCCCCN3CCCC3)ccc12")
"no"
>>> group("O=c1cc(-c2ccccc2)oc2cc(OCCCCCCCCN3CCCC3)ccc12")
"no"
>>> group("COc1ccccc1-c1cc(=O)c2ccc(OCCCCCCCCN3CCCC3)cc2o1")
"no"

---

Catalogue of compounds with associated cytotoxicity at 48 h, 1 µM
- experimentSummary: Cytotoxicity against human HepG2 cells at 1 uM after 48 hrs by MTT assay
- Format: cell-based
- studyConditions: read-out: INH
measurementKind: cytotoxicity at 48 h, 1 µM (%)

>>> val("COc1ccc(-c2cc(=O)c3ccc(OCCCCCCCCN4CCCC4)cc3o2)cc1")
6.69
>>> val("O=c1cc(-c2ccccc2OCc2ccccc2)oc2cc(OCCCCCCCCN3CCCC3)ccc12")
19.7
>>> val("O=c1cc(-c2ccc(Br)cc2)oc2cc(OCCCCCCCCN3CCCC3)ccc12")
13.3
>>> val("O=c1cc(-c2cccc(OCc3ccccc3)c2)oc2cc(OCCCCCCCCN3CCCC3)ccc12")
6.63
>>> val("O=c1cc(-c2cccc(O)c2)oc2cc(OCCCCCCCCN3CCCC3)ccc12")
19
>>> val("O=c1cc(-c2ccc(-c3ccccc3)cc2)oc2cc(OCCCCCCCCN3CCCC3)ccc12")
13.9
>>> val("O=c1cc(-c2ccc(OCc3ccccc3)cc2)oc2cc(OCCCCCCCCN3CCCC3)ccc12")
10.4
>>> val("O=c1cc(-c2ccc(N3CCCC3)cc2)oc2cc(OCCCCCCCCN3CCCC3)ccc12")
5.74
>>> val("O=c1cc(-c2cccc3ccccc23)oc2cc(OCCCCCCCCN3CCCC3)ccc12")
4.42
>>> val("Cc1ccc(-c2cc(=O)c3ccc(OCCCCCCCCN4CCCC4)cc3o2)cc1")
9.17
>>> val("COc1ccc(-c2cc(=O)c3ccc(OCCCCCCCCN4CCCC4)cc3o2)cc1OC")
13.5
>>> val("O=c1cc(-c2ccccc2)oc2cc(OCCCCCCCCN3CCCC3)ccc12")
11.3
>>> val("O=c1cc(-c2ccc(O)cc2)oc2cc(OCCCCCCCCN3CCCC3)ccc12")
18.5
>>> val("COc1ccccc1-c1cc(=O)c2ccc(OCCCCCCCCN3CCCC3)cc2o1")
5.9
>>> val("COc1cc(-c2cc(=O)c3ccc(OCCCCCCCCN4CCCC4)cc3o2)cc(OC)c1OC")
16.3
>>> val("O=c1cc(-c2ccc(Cl)cc2)oc2cc(OCCCCCCCCN3CCCC3)ccc12")
6.39
>>> val("COc1cccc(-c2cc(=O)c3ccc(OCCCCCCCCN4CCCC4)cc3o2)c1")
16.2
>>> val("O=c1cc(-c2ccccc2O)oc2cc(OCCCCCCCCN3CCCC3)ccc12")
5.92

---

- experimentSummary: Cytotoxicity against human HepG2 cells at 10 uM after 48 hrs by MTT assay
- Assay type: cell-based
- studyConditions: read-out: INH
Sorting guide: entries reporting cytotoxicity at 48 h, 10 µM beneath 40% go in the 1 (yes) pile, the rest go in the 0 (no) pile.

>>> group("O=c1cc(-c2cccc(OCc3ccccc3)c2)oc2cc(OCCCCCCCCN3CCCC3)ccc12")
"1 (yes)"
>>> group("O=c1cc(-c2ccc(Cl)cc2)oc2cc(OCCCCCCCCN3CCCC3)ccc12")
"1 (yes)"
>>> group("COc1cc(-c2cc(=O)c3ccc(OCCCCCCCCN4CCCC4)cc3o2)cc(OC)c1OC")
"0 (no)"
>>> group("O=c1cc(-c2ccccc2OCc2ccccc2)oc2cc(OCCCCCCCCN3CCCC3)ccc12")
"1 (yes)"
>>> group("O=c1cc(-c2ccccc2)oc2cc(OCCCCCCCCN3CCCC3)ccc12")
"1 (yes)"
>>> group("O=c1cc(-c2ccc(-c3ccccc3)cc2)oc2cc(OCCCCCCCCN3CCCC3)ccc12")
"0 (no)"
>>> group("O=c1cc(-c2ccc(O)cc2)oc2cc(OCCCCCCCCN3CCCC3)ccc12")
"1 (yes)"
>>> group("COc1ccccc1-c1cc(=O)c2ccc(OCCCCCCCCN3CCCC3)cc2o1")
"1 (yes)"
>>> group("O=c1cc(-c2ccc(OCc3ccccc3)cc2)oc2cc(OCCCCCCCCN3CCCC3)ccc12")
"0 (no)"
>>> group("Cc1ccc(-c2cc(=O)c3ccc(OCCCCCCCCN4CCCC4)cc3o2)cc1")
"0 (no)"
>>> group("COc1cccc(-c2cc(=O)c3ccc(OCCCCCCCCN4CCCC4)cc3o2)c1")
"1 (yes)"
>>> group("O=c1cc(-c2cccc3ccccc23)oc2cc(OCCCCCCCCN3CCCC3)ccc12")
"1 (yes)"
>>> group("COc1ccc(-c2cc(=O)c3ccc(OCCCCCCCCN4CCCC4)cc3o2)cc1OC")
"0 (no)"
>>> group("COc1ccc(-c2cc(=O)c3ccc(OCCCCCCCCN4CCCC4)cc3o2)cc1")
"1 (yes)"
>>> group("O=c1cc(-c2ccccc2O)oc2cc(OCCCCCCCCN3CCCC3)ccc12")
"0 (no)"
>>> group("O=c1cc(-c2ccc(N3CCCC3)cc2)oc2cc(OCCCCCCCCN3CCCC3)ccc12")
"1 (yes)"
>>> group("O=c1cc(-c2cccc(O)c2)oc2cc(OCCCCCCCCN3CCCC3)ccc12")
"0 (no)"
>>> group("O=c1cc(-c2ccc(Br)cc2)oc2cc(OCCCCCCCCN3CCCC3)ccc12")
"1 (yes)"

---

Reported cytotoxicity at 48 h, 10 µM values follow for various compounds
- experimentSummary: Cytotoxicity against rat PC12 cells at 10 uM after 48 hrs by MTT assay
- Type: cell-based, PC-12
- studyConditions: read-out: INH
measurementKind: cytotoxicity at 48 h, 10 µM (%)

>>> val("O=c1cc(-c2ccc(OCc3ccccc3)cc2)oc2cc(OCCCCCCCCN3CCCC3)ccc12")
1.37
>>> val("COc1ccc(-c2cc(=O)c3ccc(OCCCCCCCCN4CCCC4)cc3o2)cc1")
-6.72
>>> val("O=c1cc(-c2cccc(O)c2)oc2cc(OCCCCCCCCN3CCCC3)ccc12")
-6.56
>>> val("Nc1c2c(nc3ccccc13)CCCC2")
10.2
>>> val("O=c1cc(-c2ccccc2OCc2ccccc2)oc2cc(OCCCCCCCCN3CCCC3)ccc12")
22.9
>>> val("O=c1cc(-c2ccccc2)oc2cc(OCCCCCCCCN3CCCC3)ccc12")
1.37
>>> val("COc1cc(-c2cc(=O)c3ccc(OCCCCCCCCN4CCCC4)cc3o2)cc(OC)c1OC")
-13.8
>>> val("O=c1cc(-c2ccc(Br)cc2)oc2cc(OCCCCCCCCN3CCCC3)ccc12")
-12.5
>>> val("O=c1cc(-c2ccc(-c3ccccc3)cc2)oc2cc(OCCCCCCCCN3CCCC3)ccc12")
68.9
>>> val("O=c1cc(-c2cccc(OCc3ccccc3)c2)oc2cc(OCCCCCCCCN3CCCC3)ccc12")
-2.53
>>> val("O=c1cc(-c2cccc3ccccc23)oc2cc(OCCCCCCCCN3CCCC3)ccc12")
9.01
>>> val("O=c1cc(-c2ccc(Cl)cc2)oc2cc(OCCCCCCCCN3CCCC3)ccc12")
-1.7
>>> val("COc1ccc(-c2cc(=O)c3ccc(OCCCCCCCCN4CCCC4)cc3o2)cc1OC")
-2.94
>>> val("COc1ccccc1-c1cc(=O)c2ccc(OCCCCCCCCN3CCCC3)cc2o1")
3.4
>>> val("O=c1cc(-c2ccccc2O)oc2cc(OCCCCCCCCN3CCCC3)ccc12")
6.61
>>> val("O=c1cc(-c2ccc(O)cc2)oc2cc(OCCCCCCCCN3CCCC3)ccc12")
7.42
>>> val("COc1cccc(-c2cc(=O)c3ccc(OCCCCCCCCN4CCCC4)cc3o2)c1")
-18.2
>>> val("Cc1ccc(-c2cc(=O)c3ccc(OCCCCCCCCN4CCCC4)cc3o2)cc1")
-0.03
>>> val("O=c1cc(-c2ccc(N3CCCC3)cc2)oc2cc(OCCCCCCCCN3CCCC3)ccc12")
-9.56
